- TESTED ON: Melanocortin receptor 3 (Homo sapiens, UniProt P41968)
- Sequence (P41968 whole entry): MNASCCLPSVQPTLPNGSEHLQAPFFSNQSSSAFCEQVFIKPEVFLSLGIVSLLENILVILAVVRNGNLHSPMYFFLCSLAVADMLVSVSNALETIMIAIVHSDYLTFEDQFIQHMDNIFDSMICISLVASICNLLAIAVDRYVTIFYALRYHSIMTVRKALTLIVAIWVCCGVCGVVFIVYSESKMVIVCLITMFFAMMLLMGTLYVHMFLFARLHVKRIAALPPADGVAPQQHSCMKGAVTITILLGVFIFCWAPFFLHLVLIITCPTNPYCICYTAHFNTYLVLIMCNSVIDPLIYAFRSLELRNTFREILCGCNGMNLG
*1 amine or outer side, *2 acyl side, *3 side chain or, on linkers, in order; H or OH if unused. Where a SMILES comes first, the peptide text is derived from it. Bridges are numbered along the chain shown (N, C = ends). [ ]: non-standard residue; d: D form. mXylylene = c1cc(C[*:1])cc(C[*:2])c1; oXylylene = c1ccc(C[*:2])c(C[*:1])c1; NMeR = CN[C@@H](CCCNC(=N)N)C(=O)O; Nle = CCCC[C@H](N)C(=O)O
// values below are reported pKi
Convention used: pKi is expressed as -log10 of the molar concentration.

These solved cases illustrate the format of a correct answer.
MOLECULE	RESULT VALUE
CCCC[C@@H]1NC(=O)[C@@H]2CSCc3cccc(c3)CSC[C@H](NC(=O)[C@H](CCCNC(=N)N)NC(=O)[C@H](CC(=O)O)NC(=O)[C@H](Cc3c[nH]c4ccccc34)NC(=O)[C@H](CCCNC(=N)N)NC(=O)[C@H](Cc3ccccc3)NC(=O)[C@H](Cc3cnc[nH]3)NC(=O)CNC1=O)C(=O)N[C@@H](Cc1cnc[nH]1)C(=O)N[C@@H](Cc1ccccc1)C(=O)N[C@@H](CCCNC(=N)N)C(=O)N[C@@H](Cc1c[nH]c3ccccc13)C(=O)N[C@@H](CCCNC(=N)N)C(=O)N2 (cyclo(CHFRWRC[Nle]GHFRWDR); linker 1-7 via mXylylene)	7.87
CCCC[C@@H]1NC(=O)[C@@H]2CSCc3ccccc3CSC[C@H](NC(=O)[C@H](CCCNC(=N)N)NC(=O)[C@H](CC(=O)O)NC(=O)[C@H](Cc3c[nH]c4ccccc34)NC(=O)[C@H](CCCNC(=N)N)NC(=O)[C@H](Cc3ccccc3)NC(=O)[C@H](Cc3cnc[nH]3)NC(=O)CNC1=O)C(=O)N[C@@H](Cc1cnc[nH]1)C(=O)N[C@@H](Cc1ccccc1)C(=O)N[C@@H](CCCNC(=N)N)C(=O)N[C@@H](Cc1c[nH]c3ccccc13)C(=O)N[C@@H](CCCNC(=N)N)C(=O)N2 (cyclo(CHFRWRC[Nle]GHFRWDR); linker 1-7 via oXylylene)	7.58
CCCC[C@@H]1NC(=O)[C@@H]2CSSC[C@H](NC(=O)[C@H](CCCNC(=N)N)NC(=O)[C@H](CC(=O)O)NC(=O)[C@H](Cc3c[nH]c4ccccc34)NC(=O)[C@H](CCCNC(=N)N)NC(=O)[C@H](Cc3ccccc3)NC(=O)[C@H](Cc3cnc[nH]3)NC(=O)CNC1=O)C(=O)N[C@@H](Cc1cnc[nH]1)C(=O)N[C@@H](Cc1ccccc1)C(=O)N[C@@H](CCCNC(=N)N)C(=O)N[C@@H](Cc1c[nH]c3ccccc13)C(=O)N[C@@H](CCCNC(=N)N)C(=O)N2 (cyclo(CHFRWRC[Nle]GHFRWDR); disulfide 1-7)	7.68

Attention now shifts to the item below.
Need pKi, item CC[C@H](C)[C@@H]1NC(=O)[C@@H]2CCCN2C(=O)[C@H](Cc2c[nH]c3ccccc23)NC(=O)[C@H](CCCNC(=N)N)N(C)C(=O)[C@H](Cc2ccccc2)NC(=O)[C@H](Cc2cnc[nH]2)NC(=O)[C@H]([C@@H](C)O)NC(=O)[C@@H](NC(C)=O)CSSC[C@@H](C(N)=O)NC1=O (Ac-CTHF[NMeR]WPIC-NH2; disulfide 1-9) 5.40
